System: SW-620 colon
Experimental Details: NCI tumour cell line growth inhibition, 48 h
// reported TGI for each item listed

Form field TGI, entry "Nc1ncnc2c1ncn2[C@@H]1O[C@H](COC(c2ccccc2)(c2ccccc2)c2ccccc2)[C@@H](OC(=S)Oc2ccccc2)[C@@H]1F" : 29.7 µM

Form field TGI, entry C=CCOc1ccc(C2C(C(=O)OC)C(=O)CC(O)(c3ccccc3)C2C(=O)OC)cc1OC (stereo not drawn) : > 100 µM

Form field TGI, entry COC(=O)C(C(=O)C(=O)Nc1ccc([N+](=O)[O-])cc1)c1nc2ccc([N+](=O)[O-])cc2[nH]c1=O (stereo not drawn) : > 100 µM

Form field TGI, entry "O=C(NNS(=O)(=O)c1ccc(Cl)cc1Cl)c1cccnc1Nc1ccc(Cl)cc1" : > 100 µM

Form field TGI, entry "CCOC(=O)/C(I)=C/c1cc(OC)c(OC)c(OC)c1" : 11.6 µM

Form field TGI, entry "Nc1ccc(Nc2cc(=O)[nH]c(=O)[nH]2)cc1Cl" : > 100 µM

Form field TGI, entry "COc1ccc(CNc2cc(=O)n(C)c(=O)[nH]2)cc1" : > 100 µM

Form field TGI, entry "CC(=O)O[C@@H]1C[C@@]2(C)[C@@H]3CC=C4[C@@H](C[C@H](O)C(=O)C4(C)C)[C@]3(C)C(=O)C[C@]2(C)[C@H]1[C@@](C)(O)C(=O)/C=C/C(C)(C)OC(C)=O" : 35.6 µM

* * *

Tested on: NCI-H226 lung
Experimental Details: NCI tumour cell line growth inhibition, 48 h
Readout Type: TGI

Form field TGI, entry "NNc1nnc(-c2nnc(NN)o2)o1" : > 10 µM

Others:
Form field TGI, entry "C1CSCCSCCCSCCSCCCSCCSCCCSCCSC1" : > 100 µM

Form field TGI, entry "O=C1Cc2c([nH]c3ccc(C(=O)O)cc23)-c2ccccc2N1" : > 100 µM

* * *

System: NCI-H460 lung
Experimental Details: NCI tumour cell line growth inhibition, 48 h
Readout Type: TGI

Entry "C[CH2][Hg][S]c1ccccc1C(=O)O" , NCI-H460 lung data, TGI value: 8.98 µM

Entry "O=C(c1ccco1)N(C(=O)N1CCN(c2ccccc2)CC1)S(=O)(=O)c1ccccc1" , NCI-H460 lung data, TGI value: > 100 µM

Others:
Entry "COc1cc2cc(Oc3ccc(NC(=O)c4ccc(Cl)c(Cl)c4)cc3)c(C)nc2cc1OC" , NCI-H460 lung data, TGI value: > 100 µM

Entry "CC(C)C[C@H](NC(=O)CCn1ccc2ccccc2c1=O)B(O)O" , NCI-H460 lung data, TGI value: 56.2 µM

Entry "O=C(O)c1ccccc1NC(=S)c1ccccc1" , NCI-H460 lung data, TGI value: > 100 µM

Entry "Cc1cc(NS(=O)(=O)c2ccc(NC(=O)c3cccc4c(Nc5ccc(S(N)(=O)=O)cc5)c5ccccc5nc34)cc2)no1" , NCI-H460 lung data, TGI value: > 100 µM

Entry "CCN(CCN(CC)C(=O)Nc1ccccc1)C(=O)Nc1ccccc1" , NCI-H460 lung data, TGI value: > 100 µM

Entry "O=C(O)c1ccccc1N=Nc1c(O)c(S(=O)(=O)O)cc2cc(S(=O)(=O)O)ccc12" , NCI-H460 lung data, TGI value: > 100 µM

Entry "Oc1cccc2c1NCCC2" , NCI-H460 lung data, TGI value: 4.66 µM

Entry "Nc1nc2c(C(=O)O)c3ccc([N+](=O)[O-])cc3c(=O)n2c2ccccc12" , NCI-H460 lung data, TGI value: > 100 µM

Entry C[C@@H]1O[C@@H](O[C@@H]2[C@@H](O)[C@H](OCCc3ccc(O)c(O)c3)O[C@H](CO)[C@H]2OC(=O)/C=C/c2ccc(O)c(O)c2)[C@H](O)[C@H](OC2OC[C@](O)(CO)[C@H]2O)[C@H]1O (some centres not stated) , NCI-H460 lung data, TGI value: > 100 µM

Entry "COc1cc(C(=O)Nc2cc(O)c(CC=C(C)C)c(O)c2)cc2c1O[C@]1(C)CC[C@@H](O)C(C)(C)[C@H]1C2" , NCI-H460 lung data, TGI value: 19.1 µM

Entry "O=C(Nc1ccccc1OC(=O)c1ccccc1)c1ccccc1" , NCI-H460 lung data, TGI value: 15.2 µM

Entry "COc1cc(C(=O)c2cc(C)c3[nH]c4ccc(O)cc4c3c2C)cc(OC)c1OC" , NCI-H460 lung data, TGI value: > 100 µM

Entry "Nc1ccc(Nc2cc(=O)[nH]c(=O)[nH]2)cc1Cl" , NCI-H460 lung data, TGI value: > 100 µM

Entry CCOC(=O)c1c[nH]c2ccc3c(c2c1=O)S(=O)(=O)CC3 (tested in a mixture with another compound) , NCI-H460 lung data, TGI value: > 100 µM

* * *

Test system: SNB-78 CNS
Experimental Details: NCI tumour cell line growth inhibition, 48 h
// reported TGI for each item listed

Example cases with answers are listed next.
Form field TGI, entry "c1cc(-c2cn3c(n2)SCC3)ccn1" : > 100 µM

Form field TGI, entry "CN1CCN(P2(=S)Oc3ccc4ccccc4c3-c3c(ccc4ccccc34)O2)CC1" : > 100 µM

With those in mind, consider the next molecule.
Form field TGI, entry "Cc1cc(NS(=O)(=O)c2ccc(NC(=O)c3cccc4c(Nc5ccc(S(N)(=O)=O)cc5)c5ccccc5nc34)cc2)no1" : > 100 µM

* * *

Tested on: OVCAR-3 ovarian
Experimental Details: NCI tumour cell line growth inhibition, 48 h; in the data active means GI50 below about 0.43 µM; inactive means the rest
Pick one and only one: True (active), False (inactive)

Request: Any idea what this test logged for CC1c2ccccc2CCN1c1ccc(CO)c(Cl)c1 (stereo not drawn) ?
Response: True

Request: Any idea what this test logged for CSc1ccc(C2=NN(C(C)=O)C(c3ccc(-c4ccc(Cl)cc4)o3)C2)cc1 (stereo not drawn) ?
Response: False

Request: Any idea what this test logged for CCN1C(=O)N(CC)C2C1NN=c1s/c(=C\c3ccc(F)cc3)c(=O)n12 (stereo not drawn) ?
Response: True

Request: Any idea what this test logged for "c1cc(N2CCN(c3ccc(C4=NCCCN4)cc3)CC2)ccc1C1=NCCCN1" ?
Response: False

Request: Any idea what this test logged for "C=C1[C@@H](O)O[C@H]2[C@H]1C[C@H](OC(C)=O)[C@]13C(=O)O[C@H]4C[C@](C)(O)[C@H]([C@H]41)C31C=C(C)[C@]2(O)O1" ?
Response: False

Request: Any idea what this test logged for "N#CCCNc1nonc1-c1nc2ccccc2n1CC(=O)c1ccc(NC(=O)[C@@H](N)CCCCN)cc1" ?
Response: True

Others:
Request: Any idea what this test logged for CC1C=CC(OC(=O)C(C)(O)CCC(O)(C(=O)OC2CC(O)C(C(C)C)CC2(C)O)C(C)C)(C(C)C)CC1 (stereo not drawn) ?
Response: True

Request: Any idea what this test logged for "COc1cc2ncc3c(nc4sccn43)c2cc1OC" ?
Response: False

Request: Any idea what this test logged for "O=C1C(OCCOc2ccccc2)=C(OCCOc2ccccc2)C(=O)c2ccccc21" ?
Response: False

Request: Any idea what this test logged for "O=c1c2cc(F)ccc2sc2c(NCCCNCCO)nc3ccccc3c12" ?
Response: False

Request: Any idea what this test logged for "COc1cc(C(=O)Nc2cc(O)c(CC=C(C)C)c(O)c2)cc2c1O[C@]1(C)CC[C@@H](O)C(C)(C)[C@H]1C2" ?
Response: False

Request: Any idea what this test logged for "Oc1cccc2c1NCCC2" ?
Response: True

Request: Any idea what this test logged for "O=C(Nc1ccccc1OC(=O)c1ccccc1)c1ccccc1" ?
Response: False

* * *

// reported TGI for each item listed
Test system: MCF7 breast
Experimental Details: NCI tumour cell line growth inhibition, 48 h

Form field TGI, entry CN=C1OC2(c3ccccc3)C3=C(OC(=NC)N2C)C(=O)OC3(c2ccccc2)N1C (stereo not drawn) : > 100 µM

Form field TGI, entry "COc1cc(Nc2nc3cc(C(F)(F)F)ccc3n3cccc23)cc(OC)c1OC" : > 100 µM

Form field TGI, entry "Oc1cc(-n2cccn2)c(O)cc1-n1cccn1" : 55.1 µM

Form field TGI, entry "C[n+]1c2ccccc2nc2c(N)cc(N)cc21" : 37.3 µM

Form field TGI, entry CO/N=C1/c2sccc2[C@H](NC(=O)C(Cc2ccccc2)NC(=O)OC(C)(C)C)[C@@H]1O (stereo partly drawn) : > 100 µM

Form field TGI, entry Cn1c(=O)n2n(c1=O)C(C)(C13CC4CC(CC(C4)C1)C3)C13CC4CC(CC1C4)CC23 (stereo not drawn) : > 100 µM

* * *

// reported TGI for each item listed
Test system: SNB-75 CNS
Experimental Details: NCI tumour cell line growth inhibition, 48 h

Example cases with answers are listed next.
Form field TGI, entry "COc1ccc(C(=O)/C=C/c2ccc(OCC#N)cc2)cc1" : > 100 µM

Form field TGI, entry "COc1cccc(Oc2ccccc2NC(=O)CNC(=O)c2cccc3ccccc23)c1" : > 25 µM

Form field TGI, entry COC(=O)C1CCC(=O)N1C(c1ccc2c(c1)OCO2)c1cc(OC)c(OC)c(OC)c1 (stereo unspecified) : > 100 µM

Others:
Form field TGI, entry N#CCCC1(CCC#N)CCCCCCCCC(CCC#N)(CCC#N)C(O)C1O (stereo unspecified) : > 100 µM

Form field TGI, entry "COc1cc(CNc2nc3ccccc3nc2C(=O)O)cc(OC)c1OC" : > 100 µM

Form field TGI, entry CC(C)(C)OC(=O)NCCCCC(N)NC(=O)c1ccccc1 (stereo unspecified) : > 100 µM
